# measurement description: Apparent permeability from apical to basolateral side in MDCK cells
# Format: ADME, cell-based, Canis lupus familiaris
# study conditions: dog
metric name: Papp A→B (×10⁻⁶ cm/s)

> print(dat)
                                   molecule  readout.units  recorded.measurement
1  C[C@@H](OC(=O)Cc1ccc(Cl)c(SC2=C(O)CC(c3c(Cl)cccc3Cl)CC2=O)c1)c1ccccc1 (stereo partly drawn)     ×10⁻⁶ cm/s                  10.6

A = COc1ccc(Cl)c(SC2=C(O)CC(c3c(Cl)ccc(NC4CCOCC4)c3Cl)CC2=O)c1 (stereo not drawn)
B = CC(C)Oc1ccc(Cl)c(C2CC(=O)C(Sc3cc(O)ccc3C#N)=C(O)C2)c1Cl (stereo not drawn)
q: Please indicate which item has the smaller measured Papp A→B: A versus B Kindly state the label of the option you pick.
a: B
